Study Target: UniProtKB P06401
Protocol Summary: Antagonist activity at progesterone receptor in human T47D cells assessed as inhibition of progesterone-induced alkaline phosphatase activity after 48 hrs
Type: functional, cell-based
Reported Endpoint: pIC50
The read-out pIC50 is expressed as -log10 of concentration in moles per litre.

Guide cases for pIC50, answers given:
# Given Smiles, Study Target, pIC50
records = [
    ("CC#C[C@]1(O)CC[C@H]2[C@@H]3CCC4=CC(=O)CCC4=C3[C@@H](c3ccc(N(C)CCCCCC(N)=O)cc3)C[C@@]21C", "UniProtKB P06401", 9.26),
    ("CC#C[C@]1(O)CC[C@H]2[C@@H]3CCC4=CC(=O)CCC4=C3[C@@H](c3ccc(NC)cc3)C[C@@]21C", "UniProtKB P06401", 9.77),
]

Recorded pIC50 of "CC#C[C@]1(O)CC[C@H]2[C@@H]3CCC4=CC(=O)CCC4=C3[C@@H](c3ccc(N(C)C(=O)NCCCC)cc3)C[C@@]21C" , please. 9.10

* * *

Study Target: Progesterone receptor (Homo sapiens, UniProt P06401)
Sequence (P06401 whole entry): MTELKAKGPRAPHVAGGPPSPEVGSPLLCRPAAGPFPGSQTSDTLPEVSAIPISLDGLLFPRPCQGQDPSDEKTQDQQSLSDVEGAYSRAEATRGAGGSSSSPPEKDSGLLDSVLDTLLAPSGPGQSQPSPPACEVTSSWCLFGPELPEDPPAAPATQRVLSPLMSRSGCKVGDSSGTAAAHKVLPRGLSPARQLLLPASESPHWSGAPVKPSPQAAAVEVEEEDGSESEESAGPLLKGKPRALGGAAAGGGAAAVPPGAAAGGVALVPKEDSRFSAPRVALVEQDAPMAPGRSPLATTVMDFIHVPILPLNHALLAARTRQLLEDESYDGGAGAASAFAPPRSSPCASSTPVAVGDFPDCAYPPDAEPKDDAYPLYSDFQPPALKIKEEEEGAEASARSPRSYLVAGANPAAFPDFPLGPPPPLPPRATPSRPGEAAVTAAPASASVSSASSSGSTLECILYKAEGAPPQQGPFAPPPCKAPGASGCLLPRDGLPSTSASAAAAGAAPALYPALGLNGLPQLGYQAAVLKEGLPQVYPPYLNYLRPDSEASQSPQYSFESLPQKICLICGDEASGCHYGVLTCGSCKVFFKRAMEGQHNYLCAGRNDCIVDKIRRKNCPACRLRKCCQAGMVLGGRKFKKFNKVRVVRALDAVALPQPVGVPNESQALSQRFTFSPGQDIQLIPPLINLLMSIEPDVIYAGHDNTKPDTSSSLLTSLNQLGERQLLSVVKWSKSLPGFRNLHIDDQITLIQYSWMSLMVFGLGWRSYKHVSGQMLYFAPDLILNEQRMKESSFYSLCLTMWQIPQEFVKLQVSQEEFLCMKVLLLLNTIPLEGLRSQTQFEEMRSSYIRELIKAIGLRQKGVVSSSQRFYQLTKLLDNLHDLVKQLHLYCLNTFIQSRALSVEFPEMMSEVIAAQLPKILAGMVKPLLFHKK
Protocol Summary: Antagonist activity at progesterone receptor in human T47D cells assessed as inhibition of progesterone-induced alkaline phosphatase activity after 48 hrs
Assay type: functional, cell-based
Reported Endpoint: pIC50
// scale note: pIC50 = -log10(conc_M); give the bare number

Worked cases, pIC50 given:
# Given Smiles, pIC50
measured = [
    ("CC#C[C@]1(O)CC[C@H]2[C@@H]3CCC4=CC(=O)CCC4=C3[C@@H](c3ccc(N(C)C(=O)Nc4ccc(Cl)cc4)cc3)C[C@@]21C", 9.57),
    ("CC#C[C@]1(O)CC[C@H]2[C@@H]3CCC4=CC(=O)CCC4=C3[C@@H](c3ccc(N(C)CCCCCCO)cc3)C[C@@]21C", 10.22),
    ("CC#C[C@]1(O)CC[C@H]2[C@@H]3CCC4=CC(=O)CCC4=C3[C@@H](c3ccc(N(C)C(=S)Nc4ccc(Cl)cc4)cc3)C[C@@]21C", 9.80),
    ("CC#C[C@]1(O)CC[C@H]2[C@@H]3CCC4=CC(=O)CCC4=C3[C@@H](c3ccc(N(C)CCCCCC(=O)NCCCC)cc3)C[C@@]21C", 9.05),
    ("CC#C[C@]1(O)CC[C@H]2[C@@H]3CCC4=CC(=O)CCC4=C3[C@@H](c3ccc(O)cc3)C[C@@]21C", 8.89),
]

Would you mind telling me what pIC50 value was observed for "CC#C[C@]1(O)CC[C@H]2[C@@H]3CCC4=CC(=O)CCC4=C3[C@@H](c3ccc(N(C)C(=O)NCCCCCC(=O)N[C@@H](CC(C)C)C(=O)OC(C)(C)C)cc3)C[C@@]21C" ? 8.77

* * *

Item-by-item account of pIC50
Study Target: UniProtKB P06401
Protocol Summary: Antagonist activity at progesterone receptor in human T47D cells assessed as inhibition of progesterone-induced alkaline phosphatase activity after 48 hrs
Format: functional, cell-based
Reminder that pIC50 is minus the log10 of a molar concentration.

# Given Smiles, pIC50
records = [
    ("CC#C[C@]1(O)CC[C@H]2[C@@H]3CCC4=CC(=O)CCC4=C3[C@@H](c3ccc(N(C)C(=O)CCCCC(=O)OC)cc3)C[C@@]21C", 8.74),
]

Data request, read-out pIC50, for "CC#C[C@]1(O)CC[C@H]2[C@@H]3CCC4=CC(=O)CCC4=C3[C@@H](c3ccc(OCCCCCCCCCBr)cc3)C[C@@]21C" 9.00

Consider the compound shown here: "CC#C[C@]1(O)CC[C@H]2[C@@H]3CCC4=CC(=O)CCC4=C3[C@@H](c3ccc(N(C)C(=O)CCCC(=O)OC)cc3)C[C@@]21C" What is its recorded pIC50? 8.81
